# Tested on: HIV-1 IIIB
# Assay type: cell-based
Where a SMILES comes first, the peptide text is derived from it. Bridges are numbered along the chain shown (N, C = ends). [ ]: non-standard residue; d: D form. R8 = C=CCCCCCC[C@@](C)(N)C(=O)O; S5 = C=CCCC[C@](C)(N)C(=O)O

>  <molecule>
CC[C@H](C)[C@H](N)C(=O)N[C@@H](CO)C(=O)N[C@@H](Cc1ccccc1)C(=O)N[C@]1(C)CCCCCC/C=C\CCC[C@@](C)(C(=O)N[C@@H](CCC(=O)O)C(=O)N[C@@H](CO)C(=O)NCC(=O)N[C@@H](CO)C(N)=O)NC(=O)[C@H](Cc2ccc(O)cc2)NC(=O)[C@H](Cc2ccc(O)cc2)NC(=O)[C@H](CC(=O)O)NC(=O)[C@H](CC(C)C)NC(=O)[C@H](CC(C)C)NC(=O)[C@H](CCC(=O)O)NC1=O [NYAD-36] (H-ISF[R8]ELLDYY[S5]ESGS-NH2; staple (Z) 4-11)

>  <IC50>
1.5 µM

$$$$
